Source listed as ChEMBL document CHEMBL1130463.

System: Vibrio alginolyticus
measurementDescription: Minimum inhibitory concentration required for the inhibition of Vibrio alginolyticus
Assay type: functional
outcomeMeasure: MIC (µg/mL)
Write the value in µg/mL as a bare number.

Exercise: Find the recorded MIC belonging to CCCCCCCCCCCCCCCCCC(=O)OC[C@@H]1OC(OCCC[N+](C)(C)C)[C@@H](O)[C@@H](O)[C@@H]1O.[I-] (some centres undefined) and report it.
Key: 2000

Exercise: Find the recorded MIC belonging to CCCCCCCCCCCCCCCCCCCCCC(=O)OC[C@@H]1OC(OCCC[N+](C)(C)C)[C@@H](O)[C@@H](O)[C@@H]1O.[I-] (some centres undefined) and report it.
Key: 500

Exercise: Find the recorded MIC belonging to CCCCCCCCCCCCCCCCCCCCCCCCCCCCCC(=O)OC[C@@H]1OC(OCCC[N+](C)(C)C)[C@@H](O)[C@@H](O)[C@@H]1O.[I-] (some centres undefined) and report it.
Key: 2000

Exercise: Find the recorded MIC belonging to CCCCCCCCCCCCCCCCCCCCCCCCCC(=O)OC[C@@H]1OC(OCCC[N+](C)(C)C)[C@@H](O)[C@@H](O)[C@@H]1O.[I-] (some centres undefined) and report it.
Key: 2000
